# Tested on: MILI (PIWIL2) piRISC loaded with L1MC piRNA (26 nt);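 note: 1 nM active piRISC with 0.1 nM target library at 33 °C single turnover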
# Assay Comment: pre-steady-state target cleavage rate (min^-1); guide: L1MC piRNA 5'p-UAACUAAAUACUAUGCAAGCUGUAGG; higher = faster piRNA-guided slicing of the target
# Condition Context: auxiliary factor: 500 nM mouse GTSF1
# label = bin(measured pre-steady-state target cleavage rate), where bins are bottom range (below 0.06), center range (0.06 to below 0.2), top range (0.2 or more)

Data request: Consider UCCUGGAUCAGCUAGGAUAGUAUUUAGUUA . To which pre-steady-state target cleavage rate class does it belong?
Data returned: center range

Data request: Consider UCCUGGAUGAGCUUGCUUAGUAUUUACAAA . To which pre-steady-state target cleavage rate class does it belong?
Data returned: bottom range

Data request: Consider UCCUCCUAGAGCUUGCAUAGUAUUUACAAA . To which pre-steady-state target cleavage rate class does it belong?
Data returned: center range

Data request: Consider UCCUGCUACAGCUUGCAUAGUAUUUUGAUA . To which pre-steady-state target cleavage rate class does it belong?
Data returned: center range

Data request: Consider UCCUGGAUGUCCUUGCAUUGUAUUUAGAUA . To which pre-steady-state target cleavage rate class does it belong?
Data returned: bottom range

Data request: Consider UCCUCUCUACAGCUUGCAUAGUAUUUAGUUA . To which pre-steady-state target cleavage rate class does it belong?
Data returned: top range

Data request: Consider UCCUGGUACUGCUUGCAUAGAAUUUAGUUA . To which pre-steady-state target cleavage rate class does it belong?
Data returned: bottom range

Data request: Consider UCCUGGAACAGCUUGCAUAGUAUAAUCAAA . To which pre-steady-state target cleavage rate class does it belong?
Data returned: bottom range

Data request: Consider UCCUGGUACAGCUUGCUUAGUAUUUUCAAA . To which pre-steady-state target cleavage rate class does it belong?
Data returned: bottom range

Data request: Consider UCCUGGAACAGCUUGCAUAGUAUUUAGUUU [g2:g23:cont:t1U] . To which pre-steady-state target cleavage rate class does it belong?
Data returned: top range

Data request: Consider UCCUGGUUCAGCUUGCAUAGUAUUAAGUUA . To which pre-steady-state target cleavage rate class does it belong?
Data returned: center range

Data request: Consider UCCUCCUUCAGCUUGCAUAGUAUAUAGUUA . To which pre-steady-state target cleavage rate class does it belong?
Data returned: top range

----------
# System: EfPiwi piRISC loaded with L1MC piRNA (26 nt)
# Assay Comment: pre-steady-state target cleavage rate (min^-1); auxiliary factor: 500 nM Ephydatia muelleri Gtsf1; guide: L1MC piRNA 5'p-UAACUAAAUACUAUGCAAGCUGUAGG; higher = faster piRNA-guided slicing of the target
# label = bin(measured pre-steady-state target cleavage rate), where bins are bin 0 = under 0.004, bin 1 = from 0.004 up to 0.01, bin 2 = 0.01 and over

Data request: Consider UCCUGGAUCACCUUGCAUAGUAUUUAGAUA . To which pre-steady-state target cleavage rate class does it belong?
Data returned: bin 1

Data request: Consider UCCUGCUACUGGUUGCAUAGUAUUUAGUUA . To which pre-steady-state target cleavage rate class does it belong?
Data returned: bin 2

Data request: Consider UCCUCCUUCAGCUUGCAUAGUUUUUAGUUA . To which pre-steady-state target cleavage rate class does it belong?
Data returned: bin 1

Data request: Consider UCCUCGUACAGCUUGGAUAGUAUUUAGUUA . To which pre-steady-state target cleavage rate class does it belong?
Data returned: bin 2

Data request: Consider UCCUCCUACAGCUUCCAUAGUAUUUACAAA . To which pre-steady-state target cleavage rate class does it belong?
Data returned: bin 0

Data request: Consider UCCUCCUACAGCAAGCAUAGUAUUUAGAAA . To which pre-steady-state target cleavage rate class does it belong?
Data returned: bin 1

Data request: Consider UCCUGGAACAGCUUGCAUAGUAAUUUGUUA . To which pre-steady-state target cleavage rate class does it belong?
Data returned: bin 0

Data request: Consider UCCUCCUACAGCAUGCAUAGUAUUUAGUUA . To which pre-steady-state target cleavage rate class does it belong?
Data returned: bin 2

Data request: Consider UCCUGGAUGAGCUUGGCAUAGUAUUUAGUUA . To which pre-steady-state target cleavage rate class does it belong?
Data returned: bin 2

Data request: Consider UCCUGCUACAGCUUGCAUAGUAUUUAGUCA . To which pre-steady-state target cleavage rate class does it belong?
Data returned: bin 0

Data request: Consider UCCUGGAACAGCUUGCAUAGUAUUUUCAAA . To which pre-steady-state target cleavage rate class does it belong?
Data returned: bin 0

Data request: Consider UCCUGGAACAGCUUGCAUAGUAUAUAGAAA . To which pre-steady-state target cleavage rate class does it belong?
Data returned: bin 1

Data request: Consider UCCUGCUACAGCUUGGAUAGUAUUUUCAAA . To which pre-steady-state target cleavage rate class does it belong?
Data returned: bin 0

Data request: Consider UCCUGCUUGAGCUUGCAUAGUAUUUUCAAA . To which pre-steady-state target cleavage rate class does it belong?
Data returned: bin 0

Data request: Consider UCCUGGUACAGCUUGCAUACUAUUUAGUAA . To which pre-steady-state target cleavage rate class does it belong?
Data returned: bin 0

Data request: Consider UCCUGGAAGAGGUUGCAUAGUAUUUAGUUA . To which pre-steady-state target cleavage rate class does it belong?
Data returned: bin 1

Data request: Consider UCCUGGAUGUCGAACGAUAGUAUUUAGGUA . To which pre-steady-state target cleavage rate class does it belong?
Data returned: bin 0

Data request: Consider UCCUGGAACAGAUUGCAUAGUAUUUAGUUA . To which pre-steady-state target cleavage rate class does it belong?
Data returned: bin 2

Data request: Consider UCCUGCUACAGCUUGCAUAGUAUUUAGAUUA . To which pre-steady-state target cleavage rate class does it belong?
Data returned: bin 1

Data request: Consider UCCUGCUACAGCUUGCAUAGUAUUAAGUUA . To which pre-steady-state target cleavage rate class does it belong?
Data returned: bin 1

Data request: Consider UCCUGGAACAUGCUUGCAUAGUAUUUAGUUA . To which pre-steady-state target cleavage rate class does it belong?
Data returned: bin 2

Data request: Consider UCCUGGAACUGCAUGCAUAGUAUUUAGUUA . To which pre-steady-state target cleavage rate class does it belong?
Data returned: bin 2

Data request: Consider UCCUGGAACUGCUUGGAUAGUAUUUAGUUA . To which pre-steady-state target cleavage rate class does it belong?
Data returned: bin 2

Data request: Consider UCCUGGAUGUGGAUGCAUAGUAUUUAGUUA . To which pre-steady-state target cleavage rate class does it belong?
Data returned: bin 1

Data request: Consider UCCUGGAACAGCUUGCAAAGUAUUUAGAUA . To which pre-steady-state target cleavage rate class does it belong?
Data returned: bin 0

Data request: Consider UCCUGGAUCAGCUUGCAUACUAUUUACUUA . To which pre-steady-state target cleavage rate class does it belong?
Data returned: bin 0

----------
# Test system: MILI (PIWIL2) piRISC loaded with piRNA #1 (26 nt);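 note: 1 nM active piRISC with 0.1 nM target library at 33 °C single turnover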
# Assay Comment: pre-steady-state target cleavage rate (min^-1); guide: piRNA #1 5'p-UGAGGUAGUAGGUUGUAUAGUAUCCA; higher = faster piRNA-guided slicing of the target
# Condition Context: auxiliary factor: 500 nM mouse GTSF1
Assignment: determine reported pre-steady-state target cleavage rate for the given sequences.
Give the figure by itself; no unit, no explanation.

So, GGAGAGGAUACUAUAGUUCCUACUACCUCA ? Its pre-steady-state target cleavage rate was 0.18

So, GGAGAGGAUACAAUACAACCUACUACGUCA ? Its pre-steady-state target cleavage rate was 0.0443

So, GGAGUCGAUACUAUACAACCUACUAGCUCA ? Its pre-steady-state target cleavage rate was 0.0244

So, GGAGACCUAACUAUACAACCUACUACCGCA ? Its pre-steady-state target cleavage rate was 0.197

So, GGAGACCUAUCUAAAGAACCUACUACCUCA ? Its pre-steady-state target cleavage rate was 0.0183

So, GGAGACGAUUCUAUACAACCUACUACCUGA ? Its pre-steady-state target cleavage rate was 0.167

So, GGAGACGAUACUAUACAACGAACUACCUCA ? Its pre-steady-state target cleavage rate was 0.00414

So, GGAGACCAUUGAAUACAACCUACUACCUCA ? Its pre-steady-state target cleavage rate was 0.0121

So, GGAGACGAUACUAUGCAACCUACUACCUCA ? Its pre-steady-state target cleavage rate was 0.21

----------
# Test system: MILI (PIWIL2) piRISC loaded with L1MC piRNA (26 nt);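 note: 1 nM active piRISC with 0.1 nM target library at 33 °C single turnover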
# Assay Comment: pre-steady-state target cleavage rate (min^-1); guide: L1MC piRNA 5'p-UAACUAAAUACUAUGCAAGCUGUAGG; MIWI and MILI are mouse PIWI proteins and EfPiwi is from a freshwater sponge; tags in brackets are library labels; higher = faster piRNA-guided slicing of the target
# Condition Context: auxiliary factor: none (no GTSF1)
Test Readout: pre-steady-state target cleavage rate
Give the figure by itself; no unit, no explanation.

So, UCCUGCUACAGCUUGCAUAGUAUUAUAGUUA ? Its pre-steady-state target cleavage rate was 0.00585

So, UCCUGGUUGAGCUUGCAUAGUAUUUAGUAA ? Its pre-steady-state target cleavage rate was 0.00595

So, UCCUGCUUGAGCUUGCAUAGUAUUUAGUUA ? Its pre-steady-state target cleavage rate was 0.00599

So, UCCUGGAUGUCCUUGCAUAGUUUUUAGUUA ? Its pre-steady-state target cleavage rate was 0.00594

Data credit: the supplement of paper PMC10338343
